Numbers sourced from ChEMBL document CHEMBL1149495.

# Assay Method Text: AUC in Sprague-Dawley rat at 20 mg/kg, po
# Type: ADME, organism-based, Plasma
# Parameters: dose 20 mg/kg, route oral
# Setup Conditions: Sprague-Dawley, plasma
Measure Name: AUC

**Query** Need AUC, item C[C@]12CC[C@@H]3c4ccc(O)cc4C[C@@H](CCCCCCCC[C@H](CCCC(F)(F)C(F)(F)C(F)(F)C(F)(F)F)C(=O)O)[C@H]3[C@@H]1CC[C@@H]2O
**Result** 190 µg·h/mL

**Query** Then C[C@]12CC[C@@H]3c4ccc(O)cc4C[C@@H](CCCCCCCCC(CCCC(F)(F)C(F)(F)C(F)(F)C(F)(F)F)C(=O)O)[C@H]3[C@@H]1CC[C@@H]2O (some centres undefined) ?
**Result** 144 µg·h/mL

// batch mode: one AUC value per listed entry
1. C[C@]12CC[C@@H]3c4ccc(O)cc4C[C@@H](CCCCCCCC[C@@H](CCCC(F)(F)C(F)(F)C(F)(F)C(F)(F)F)C(=O)O)[C@H]3[C@@H]1CC[C@@H]2O
2. C[C@]12CC[C@@H]3c4ccc(O)cc4C[C@@H](CCCCCCCC[C@@H](CCCC(F)(F)C(F)(F)C(F)(F)C(F)(F)F)C(=O)O)[C@H]3[C@@H]1CCC2=O

**Result**
98 µg·h/mL
32 µg·h/mL
